These measurements were taken from paper PMC7321382.

Test system: S. aureus 16207
Assay: Antibacterial MIC, broth microdilution, S. aureus
Format: cell-based, Staphylococcus aureus
Details: Staphylococcus aureus, 16207; Gram-positive; 24 h incubation; highest concentration tested 32 µM
I'd be grateful if you could share measured MIC for these entries.

Examples with their reported MIC follow.
>  <compound>
O=C(NCCCNCCNC(=O)c1ccc[nH]1)c1ccc[nH]1 [Compound 16a]

>  <study target>
S. aureus 16207

>  <MIC>
> 32 µM

$$$$
>  <compound>
CC(C)(C)OC(=O)NCCCNC(=O)c1cc(Br)c[nH]1 [Compound 28d]

>  <study target>
S. aureus 16207

>  <MIC>
> 32 µM

$$$$
>  <compound>
CC(C)(C)OC(=O)NCCCNC(=O)c1cc(Br)c(Br)[nH]1 [Compound 28e]

>  <study target>
S. aureus 16207

>  <MIC>
> 32 µM

$$$$
>  <compound>
O=C(NCCNCCNC(=O)c1cc(Cl)c[nH]1)c1cc(Cl)c[nH]1 [Compound 13b]

>  <study target>
S. aureus 16207

>  <MIC>
> 32 µM

$$$$
>  <compound>
CC(C)(C)OC(=O)NCCCNC(=O)c1cc(I)c[nH]1 [Compound 28f]

>  <study target>
S. aureus 16207

>  <MIC>
> 32 µM

$$$$

State recorded MIC for all listed compounds.
1. O=C(NCCCCNCCCNC(=O)c1cc(Br)c(Br)[nH]1)c1cc(Br)c(Br)[nH]1 [Pseudoceratine 1, pseudoceratidine]
2. CN(C)CCCNC(=O)c1cc(Cl)c[nH]1 [Compound 27b]
3. O=C(NCCCNCCCNC(=O)c1cc(Cl)c[nH]1)c1cc(Cl)c[nH]1 [Compound 14b]
4. O=C(NCCCNCCCNCCCNC(=O)c1cc(Cl)c(Cl)[nH]1)c1cc(Cl)c(Cl)[nH]1 [Compound 18c]

(A)
8 to 16 µM
> 32 µM
> 32 µM
4 to 8 µM
